assayed.system: Gal4-HNF4α (human HNF4α LBD) (Homo sapiens, UniProt P41235)
Construct: uniprot entry: P41235-1, residues 142-377; expressed in transfected cells; host or cells: HEK293T
Sequence (P41235 142-377): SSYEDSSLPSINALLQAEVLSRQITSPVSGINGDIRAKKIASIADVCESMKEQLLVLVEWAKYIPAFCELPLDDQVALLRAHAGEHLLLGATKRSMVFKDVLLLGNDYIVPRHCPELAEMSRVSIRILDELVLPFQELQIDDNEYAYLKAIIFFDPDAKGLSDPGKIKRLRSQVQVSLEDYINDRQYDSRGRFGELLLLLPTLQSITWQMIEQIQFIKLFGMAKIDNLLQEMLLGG
assay.info: Hybrid Gal4-HNF4α reporter gene assay in transiently transfected HEK293T cells
Type: cell-based
measurement.conditions: Table S1, primary screening, 50 µM
Decision: HNF4a-screening_activity_(mean_of_n=2) >= 1 yields label 1, all other cases yield label 0.

O=C1COCCN1    label 1

Now consider the entry below.
Challenge: Dear colleague, could you confirm whether O=C(Cc1ccccc1F)C1CC1 has HNF4a-screening_activity_(mean_of_n=2) at or above 1?
Response given: label 1

====

assayed.system: Gal4-HNF4α (human HNF4α LBD) (Homo sapiens)
Construct: uniprot entry: P41235-1, residues 142-377; expressed in transfected cells; host or cells: HEK293T
assay.info: Hybrid Gal4-HNF4α reporter gene assay in transiently transfected HEK293T cells
Format: cell-based
measurement.conditions: Table S1, primary screening, 50 µM
measured.property: HNF4a-screening_activity_(mean_of_n=2)
When you answer, write just the number.

CCNC(=O)c1cccnc1    1.068

For the next question, use this compound.
Challenge: What HNF4a-screening_activity_(mean_of_n=2) value was documented for this compound, Nc1ncc([N+](=O)[O-])s1 [Prestw-Frag-3324, Nc1ncc(s1)[N+]([O-])=O] ?
Response given: 0.8744

====

Entries and their measured HNF4a-screening_activity_(mean_of_n=2) follow.
assayed.system: Gal4-HNF4α (human HNF4α LBD) (Homo sapiens, UniProt P41235)
Construct: uniprot entry: P41235-1, residues 142-377; expressed in transfected cells; host or cells: HEK293T
assay.info: Hybrid Gal4-HNF4α reporter gene assay in transiently transfected HEK293T cells
Format: cell-based
measurement.conditions: Table S1, primary screening, 50 µM

Nc1nc2c(s1)CCCC2 [Prestw-Frag-2972, Nc1nc2CCCCc2s1]    1.123
OCC(O)COc1ccccc1 (centres unmarked) [Prestw-Frag-1337, OCC(O)COc1ccccc1]    0.9566
NS(=O)(=O)c1ccc(C(=O)O)cc1 [Prestw-Frag-2123, NS(=O)(=O)c1ccc(cc1)C(O)=O]    0.9355
NCCCOc1cccc(CN2CCCCC2)c1 [Prestw-Frag-2808, NCCCOc1cccc(CN2CCCCC2)c1]    1.297
Nc1cccc(O)c1 [Prestw-Frag-2826, Nc1cccc(O)c1]    1.072
Sc1nc2ccccc2[nH]1 [Prestw-Frag-2539, Sc1nc2ccccc2[nH]1]    1.302

Challenge: GET /values?readout=HNF4a-screening_activity_(mean_of_n=2)&item= Nc1ccccc1S(N)(=O)=O [Prestw-Frag-2473, Nc1ccccc1S(N)(=O)=O]
Response given: 1.395

Challenge: Name the recorded HNF4a-screening_activity_(mean_of_n=2) for CC(C(=O)O)c1cccc(F)c1 (centres unmarked) [Prestw-Frag-3706, CC(C(O)=O)c1cccc(F)c1] .
Response given: 1.072

Challenge: Returns the measured HNF4a-screening_activity_(mean_of_n=2) for the input molecule. Input: Oc1ccccc1OCC(F)(F)F [Prestw-Frag-3225, Oc1ccccc1OCC(F)(F)F]
Response given: 1.152

Challenge: # query: HNF4a-screening_activity_(mean_of_n=2) of entry c1ccc(N2CCNCC2)nc1 [Prestw-Frag-1110, C1CN(CCN1)c1ccccn1]
Response given: 1.308

Challenge: Give the measured HNF4a-screening_activity_(mean_of_n=2) of CC(O)(C(=O)O)c1ccccc1 (centres unmarked) [Prestw-Frag-3717, CC(O)(C(O)=O)c1ccccc1] .
Response given: 1.037

Challenge: Please look up its HNF4a-screening_activity_(mean_of_n=2): Oc1nsnc1N1CCOCC1 [Prestw-Frag-2562, Oc1nsnc1N1CCOCC1]
Response given: 1.981

Challenge: Fill in: HNF4a-screening_activity_(mean_of_n=2) of Nc1ccc(CS(=O)(=O)N2CCCC2)cc1 [Prestw-Frag-3341, Nc1ccc(CS(=O)(=O)N2CCCC2)cc1] is ___
Response given: 1.256

Challenge: Entry under review: CCN(Cc1ccccc1)c1ccccc1 [Prestw-Frag-1121, CCN(Cc1ccccc1)c1ccccc1] . Reported HNF4a-screening_activity_(mean_of_n=2)?
Response given: 1.173

Data credit: paper PMC7660650
